Consider the following sequences; for each one, report its PBM binding z-score.
System: LXRa:RXRa (NR concentration 270 nM, RXRa partner concentration 90 nM)
Experiment: PBM binding z-score (relative to random genomic background probes); higher = stronger binding; sequences stand for … in GC…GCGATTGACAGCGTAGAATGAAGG
Lab note: record the figure alone, no unit after it.

Reported PBM binding z-score of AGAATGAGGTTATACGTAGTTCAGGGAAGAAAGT : 3.06

Reported PBM binding z-score of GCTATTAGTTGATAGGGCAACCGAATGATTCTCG : -0.305

Reported PBM binding z-score of CCTATTAGTTGACCATAAGGGCACCCGAAGCTCG : 0.567

Reported PBM binding z-score of ATCGAAAGGTCGCGAGGTGAGTATACAGAAAGGC : 4.1

Reported PBM binding z-score of TCGAGGAGGTTAGTCGGGGCATTCAGCCAACATA : 0.675

Reported PBM binding z-score of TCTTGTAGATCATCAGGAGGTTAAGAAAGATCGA : 1.07

Reported PBM binding z-score of ATATGTAGGTTATCGGGTCATTCAATTTGCGCAT : 3.55

Reported PBM binding z-score of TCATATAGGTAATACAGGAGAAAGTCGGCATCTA : 1.01

Reported PBM binding z-score of TAGCCTAGGTCATGCGGGCCAGGATAGTGTCGGC : 2.96

Reported PBM binding z-score of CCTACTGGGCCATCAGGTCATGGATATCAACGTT : 1.22

Reported PBM binding z-score of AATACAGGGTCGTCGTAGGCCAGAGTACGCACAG : 1.97

Reported PBM binding z-score of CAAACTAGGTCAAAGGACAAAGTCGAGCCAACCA : 3.41

Just for reference, the supplement of paper PMC6555819 is where these values come from.
